Molecular target: T1, 인간 ROR1 (세포 표면 발현) (human, UniProt Q01973 30-937)
T1 construct: whole, on cells; endogenous on JeKo-1, Mino and other human cancer lines; overexpressed on CHO and MC38 cells; also called hROR1; CHO-human ROR1
T1 sequence (Q01973 30-937): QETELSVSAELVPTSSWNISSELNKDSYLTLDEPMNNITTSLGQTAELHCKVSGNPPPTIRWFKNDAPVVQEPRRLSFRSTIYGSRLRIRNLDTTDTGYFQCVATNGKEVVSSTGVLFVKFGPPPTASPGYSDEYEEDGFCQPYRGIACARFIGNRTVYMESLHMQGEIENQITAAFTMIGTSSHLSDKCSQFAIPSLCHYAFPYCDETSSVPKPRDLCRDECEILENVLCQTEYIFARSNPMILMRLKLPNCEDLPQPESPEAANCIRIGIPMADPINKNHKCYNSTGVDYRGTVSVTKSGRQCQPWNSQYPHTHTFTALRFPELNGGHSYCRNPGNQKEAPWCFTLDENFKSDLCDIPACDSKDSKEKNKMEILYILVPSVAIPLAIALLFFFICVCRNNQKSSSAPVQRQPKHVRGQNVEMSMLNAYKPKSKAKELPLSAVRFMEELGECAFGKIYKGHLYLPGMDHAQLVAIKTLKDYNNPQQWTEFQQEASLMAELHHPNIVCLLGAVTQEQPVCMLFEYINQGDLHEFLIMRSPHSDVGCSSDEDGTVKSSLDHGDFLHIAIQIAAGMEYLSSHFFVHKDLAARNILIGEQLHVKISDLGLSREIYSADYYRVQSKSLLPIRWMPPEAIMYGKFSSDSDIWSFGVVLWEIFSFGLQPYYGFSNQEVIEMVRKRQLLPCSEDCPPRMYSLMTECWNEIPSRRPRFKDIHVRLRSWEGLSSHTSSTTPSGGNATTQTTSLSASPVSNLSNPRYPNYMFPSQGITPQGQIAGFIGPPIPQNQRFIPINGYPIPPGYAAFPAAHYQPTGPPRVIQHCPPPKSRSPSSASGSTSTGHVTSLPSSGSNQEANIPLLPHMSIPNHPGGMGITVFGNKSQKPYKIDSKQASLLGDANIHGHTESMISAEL
Assay: flow cytometry, JeKo-1 and Mino cells
recorded.endpoint: binding result

CC9 (antibody, human IgG1, lambda, V domains shown, full IgG, human IgG1 heavy and lambda light constant regions; expressed in CHO-S; also called 항-ROR1 IgG 항체 CC9) VH: EVQLLESGGGLVQPGGSLRLSCAASGFTFSSYDMSWVRQAPGKGLEWVSGISHGSGNKYYADSVKGRFTISRDNSKNTLYLQMNSLRAEDTAVYYCAKRLSLRRRPSYYSDNAMDVWGQGTLVTVSS VL: QSVLTQPPSASGTPGQRVTISCTGSSSNIGNNAVNWYQQLPGTAPKLLIYYDSNRPSGVPDRFSGSKSGTSASLAISGLRSEDEADYYCGAWDDSLSGYVFGGGTKLTVLG :: binds
A2F2 M1 (antibody, human IgG1, lambda, V domains shown, full IgG, human IgG1 heavy and lambda light constant regions; expressed in CHO-S; also called 항-ROR1 IgG 항체 A2F2 M1) VH: EVQLLESGGGLVQPGGSLRLSCAASGFTFSDYYMSWVRQAPGKGLEWVSSISPDASNTYYADSVKGRFTISRDNSKNTLYLQMNSLRAEDTAVYYCAKNLRAFDYWGQGTLVTVSS VL: QSVLTQPPPASGTPGQRVTISCSGSSSNIGSNTVYWYQQLPGTAPKLLIYANSQRPSGVPDRFSGSKSGTSASLAISGLRSEDEADYYCGSWDYSLSGYVFGGGTKLTVLG :: binds
BA6 (antibody, human IgG1, lambda, V domains shown, full IgG, human IgG1 heavy and lambda light constant regions; expressed in CHO-S; also called 항-ROR1 IgG 항체 BA6) VH: EVQLLESGGGLVQPGGSLRLSCAASGFTFSNYDMSWVRQAPGKGLEWVSAIYHSGSSKYYADSVKGRFTISRDNSKNTLYLQMNSLRAEDTAVYYCARGGNGAWDTGFDYWGQGTLVTVSS VL: QSVLTQPPSASGTPGQRVTISCSGSSSNIGSNDVSWYQQLPGTAPKLLIYYDNNRPSGVPDRFSGSKSGTSASLAISGLRSEDEADYYCGAWDDSLSGYVFGGGTKLTVLG :: binds

All values here come from patent KR20210028556A.
